Provide the recorded % Block at 40 nM for the entries that follow.
# TARGET_OF_ASSAY: T1, CTLA-4-hFc (immunogen A; hFc-labeled CTLA-4 extracellular domain protein) (human, UniProt P16410 36-161)
# T1 construct: range 36-161; Made in HEK293 cells, purified on protein A; also called CLTA-4-hFc; CTLA-4 protein; not shown: human IgG Fc fragment (hFc) of the pCpC vector
# T1 sequence (looked up): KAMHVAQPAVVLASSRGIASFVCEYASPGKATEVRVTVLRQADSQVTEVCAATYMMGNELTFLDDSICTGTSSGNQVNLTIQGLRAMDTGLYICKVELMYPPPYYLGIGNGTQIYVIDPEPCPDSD
# TEST_NAME: blocking assay, CTLA-4 protein, competitor B7.1
# Protocol: CTLA-4 extracellular domain protein (CTLA-4-hFc) was diluted with PBS to a final concentration of 1.0 μg/mL, and then added to a 96-well ELISA plate as 100 μl per well. The plate was covered with a plastic film and incubated overnight at 4° C. […] An ELISA plate reader (SpectraMax 384plus, Molecular Device) was used to read the A450 nm value.
One number for each entry, in %.

92C8B6 fully human CTLA-4 antibody (human IgG1, kappa) (antibody, V domains shown, also called mAb42; mAb042) VH: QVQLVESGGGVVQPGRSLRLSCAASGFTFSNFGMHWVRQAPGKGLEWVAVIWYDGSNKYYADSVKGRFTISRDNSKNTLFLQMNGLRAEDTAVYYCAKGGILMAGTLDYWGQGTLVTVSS VL: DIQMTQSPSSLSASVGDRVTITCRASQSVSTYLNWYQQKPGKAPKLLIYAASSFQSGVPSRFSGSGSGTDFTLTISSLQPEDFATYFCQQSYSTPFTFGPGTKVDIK | 98.9
31C12F3 fully human CTLA-4 antibody (human IgG1, kappa) (antibody, V domains shown, also called mAb010) VH: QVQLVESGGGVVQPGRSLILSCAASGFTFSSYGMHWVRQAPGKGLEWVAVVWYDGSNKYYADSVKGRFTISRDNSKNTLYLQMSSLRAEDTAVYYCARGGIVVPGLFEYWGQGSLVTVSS VL: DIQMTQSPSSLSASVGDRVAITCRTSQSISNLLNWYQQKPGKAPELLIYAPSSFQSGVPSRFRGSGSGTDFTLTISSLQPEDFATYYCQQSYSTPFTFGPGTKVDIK | 99.1
40C4C6 fully human CTLA-4 antibody (human IgG1, kappa) (antibody, V domains shown, also called mAb09; mAb009) VH: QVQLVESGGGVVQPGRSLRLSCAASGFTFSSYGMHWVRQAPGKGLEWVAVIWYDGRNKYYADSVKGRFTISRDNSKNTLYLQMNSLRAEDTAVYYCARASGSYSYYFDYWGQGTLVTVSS VL: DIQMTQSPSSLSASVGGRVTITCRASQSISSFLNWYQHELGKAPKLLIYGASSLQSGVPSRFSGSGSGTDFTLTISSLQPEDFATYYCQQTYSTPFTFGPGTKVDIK | 99.4

q: Return % Block at 40 nM for the following binder: 97A8D1 fully human CTLA-4 antibody (human IgG1, kappa) (antibody, V domains shown, also called mAb49; mAb049) VH: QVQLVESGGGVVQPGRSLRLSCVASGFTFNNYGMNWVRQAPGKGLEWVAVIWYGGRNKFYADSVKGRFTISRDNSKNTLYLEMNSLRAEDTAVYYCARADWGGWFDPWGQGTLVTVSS VL: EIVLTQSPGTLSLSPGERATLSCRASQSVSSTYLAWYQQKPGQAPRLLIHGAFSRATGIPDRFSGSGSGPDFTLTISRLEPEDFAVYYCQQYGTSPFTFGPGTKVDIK
a: 97.2
